# TEST_METHOD_NOTES: snapshot PK in mice, single oral dose
# Assay type: in vivo
# ASSAY_CONDITIONS: mouse, in vivo, po; mice balb/c, 20 mg/kg orally, PEG300/D5W 3:1 solution, free base
VALUE_TYPE: AUC(0-t) (µM·h)
Give your result in µM·h as a bare value.

In [3]: df
Out[3]:
                         structure_notation  observed
0  O=C(Nc1cccc(C(F)(F)F)c1)c1cc(N2CCc3ccccc3C2)cc(C(F)(F)F)c1      1.67
1  O=C(Nc1cc(Cl)cc(Cl)c1)c1cc(N2CCC(N3CCCC3)CC2)cc(C(F)(F)F)c1      4.81
2  CC1CCN(C2CCN(c3cc(C(=O)Nc4cccc(Cl)c4)cc(C(F)(F)F)c3)CC2)CC1      7.93
3  O=C(Nc1cccc(Cl)c1)c1cc(N2CCC(N3CCCC3)CC2)cc(C(F)(F)F)c1      3.92

Recorded AUC(0-t) of O=C(Nc1cccc(Cl)c1)c1cc(N2CCC(N3CCCCC3)CC2)cc(C(F)(F)F)c1 , please. 4.37

Another compound: O=C(Nc1cc(N2CCC(N3CCCC3)CC2)cc(C(F)(F)F)c1)c1cccc(C(F)(F)F)c1 4.77
